meta.source: patent US8283353B2

Target: human AT1 receptor (Homo sapiens)
Construct: expressed in transfected cells; membrane fraction
Sequence (P30556 1-359): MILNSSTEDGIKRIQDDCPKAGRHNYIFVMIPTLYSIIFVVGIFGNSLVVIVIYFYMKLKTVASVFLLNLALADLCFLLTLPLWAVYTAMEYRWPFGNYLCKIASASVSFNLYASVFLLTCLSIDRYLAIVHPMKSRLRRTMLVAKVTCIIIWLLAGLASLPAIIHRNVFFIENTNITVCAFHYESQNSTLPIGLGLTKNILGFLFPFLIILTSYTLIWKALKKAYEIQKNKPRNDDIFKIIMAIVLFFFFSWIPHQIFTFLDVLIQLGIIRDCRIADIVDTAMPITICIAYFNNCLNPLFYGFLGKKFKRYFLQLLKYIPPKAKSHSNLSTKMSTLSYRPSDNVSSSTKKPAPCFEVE
Experiment: AT1 receptor antagonistic activity: [125I]-angiotensin II binding assay on human AT1 receptor-expressing CHO-K1 cellular membrane fraction
Details: 22.5 pM [125I]-angiotensin II, 1 hr room temperature
reported_property: IC50

Some solved cases for reference:
• CCCCc1c(Cc2ccc(-c3ccccc3-c3noc(=O)[nH]3)cc2F)c(=O)n(C2CCOCC2)c2nc(C)nn12 [Example 135] = 0.9 nM
• CCCCc1c(Cc2ccc(-c3ccccc3-c3noc(=O)[nH]3)cc2)c(=O)n([C@H]2CC[C@H](OC(C)C(C)(C)O)CC2)c2ncnn12 (stereo partly drawn) [Example 206] = 2.2 nM
• CCCc1c(Cc2ccc(-c3ccccc3-c3noc(=O)[nH]3)cc2)c(=O)n(C2CCN(c3ccc(O)cc3)CC2)c2ncnn12 [Example 382] = 2.9 nM

The value of IC50 measured for the compound CCCc1c(Cc2ccc(-c3ccccc3-c3noc(=O)[nH]3)cc2)c(=O)n([C@H]2CC[C@H](OCC(O)C(F)F)CC2)c2ncnn12 (stereo partly drawn) [Example 352] turned out to be 1.4 nM

The value of IC50 measured for the compound CCCc1c(Cc2ccc(-c3ccccc3-c3noc(=O)[nH]3)cc2)c(=O)n(C2CCOCC2)c2ncnn12 [Example 109] turned out to be 2.2 nM

The value of IC50 measured for the compound CCCc1c(Cc2ccc(-c3ccccc3-c3noc(=O)[nH]3)cc2)c(=O)n([C@H]2CC[C@H](Oc3ccon3)CC2)c2ncnn12 [Example 282] turned out to be 2.2 nM
